Data credit: the RNAGym collection of RNA variant scans (doi:10.7554/elife.90254)

B1: LINE1-mini (parent)
chain: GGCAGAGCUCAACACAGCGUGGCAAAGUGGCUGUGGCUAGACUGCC

variants of: B1; assay: self-cleavage, relative activity (ratio to wild type); higher = more cleavage; in vitro, sequencing; the parent is a self-cleaving ribozyme
The entries below come with measured self-cleavage values attached.
value kind: self-cleavage

INSERT INTO results (mutant_label, value_kind, reported_result) VALUES
  ('C23A G40U', 'self-cleavage', 0.14),
  ('G21C G36A', 'self-cleavage', 0.1),
  ('C15G A41U', 'self-cleavage', 0.06),
  ('A6G A39U', 'self-cleavage', 0.08),
  ('A12C U28C', 'self-cleavage', 0.02),
  ('C31A U38G', 'self-cleavage', 0.03),
  ('C3U C15G', 'self-cleavage', 0.08),
  ('C8G U32A', 'self-cleavage', 0.04),
  ('A4U C18A', 'self-cleavage', 0.07),
  ('U34C G44C', 'self-cleavage', 0.11),
  ('A12U C42U', 'self-cleavage', 0.13);
